target: T1, truncated wild type EGFR 1-525 (EGFR1 (1-525)-SRGPF-Myc-NMHTG-6His) (human, UniProt P00533 25-525); test: SPR (Biacore), antibody captured via anti-human Fc, antigen injected
T1 construct: the signal peptide is left out; not shown: Myc tag
endpoint-name: kon (M⁻¹ s⁻¹)
One number for each entry, in M⁻¹ s⁻¹.

[[record]]
binder = "Antibody L (AbL) (antibody, V domains shown, Full length IgG1) VH: EVQLQESGPGLVKPSQTLSLTCTVSGYSIGKDFAWNWIRQPPGKGLEWMGYISYNGNTRYQPSLKSRITISRDTSKNQFFLKLNSVTAADTATYYCVTASRGLPYWGQGTLVTVSS VL: DIQMTQSPSSMSVSVGDRVTITCHSSQDITYNVGWLQQKPGKSFKGLIYHGSNLDHGVPSRFSGSGSGTDYTLTISSLQPEDFATYYCVQYDDFPWTFGGGTKLEIK"
number = 5650

[[record]]
binder = "Antibody P (AbP) (antibody, V domains shown, Full length IgG1) VH: EVQLQESGPGLVKPSQTLSLTCTVSGYSISHDFAWNWIRQPPGKGLEWMGYISYSGNTRYQPSLKSRITISRDTSKNQFFLKLNSVTAADTATYYCVTASWGLPWWGQGTLVTVSS VL: DIQMTQSPSSMSVSVGDRVTITCHSSQDINMNVGWLQQKPGKSFKGLIYHGAILDDGVPSRFSGSGSGTDYTLTISSLQPEDFATYYCVQYAEFPWTFGGGTKLEIK"
number = 3580


Give kon for each of the items listed below.
1. Antibody J (AbJ) (antibody, V domains shown, Full length IgG1) VH: EVQLQESGPGLVKPSQTLSLTCTVSGYSIGKDFAWNWIRQPPGKGLEWMGYISYSGNTRYQPSLKSRITISRDTSKNQFFLKLNSVTAADTATYYCVTASRGLPYWGQGTLVTVSS VL: DIQMTQSPSSMSVSVGDRVTITCHSSQDITYNIGWLQQKPGKSFKGLIYHGANLDDGVPSRFSGSGSGTDYTLTISSLQPEDFATYYCVQYDEFPWTFGGGTKLEIK
2. Antibody B (AbB) (antibody, V domains shown, Converted from scFv into a full length IgG1 antibody) VH: EVQLQESGPGLVKPSQTLSLTCTVSGYSISNDFAWNWIRQPPGKGLEWMGYISYKGNTRYQPSLKSRITISRDTSKNQFFLKLNSVTAADTATYYCVTASRGFPWWGQGTLVTVSS VL: DIQMTQSPSSMSVSVGDRVTITCHSSQDINSNIGWLQQKPGKSFKGLIYHGTNLDDGVPSRFSGSGSGTDYTLTISSLQPEDFATYYCVQYAQFPWTFGGGTKLEIK

A:
2200
5460
